Tested on: CCRIS mutagenicity, Ames/micronucleus/aberration tests
Assay: CCRIS mutagenicity studies
Conditions: Test System: AMES SALMONELLA TYPHIMURIUM; Strain/Indicator: TA1537; Metabolic Activation: MOUSE, LIVER, S-9, AROCLOR 1254; Method: STANDARD PLATE
Active and inactive are the calls of the source. No rule for the calls is given here.
Thanks in advance; please answer with one of these: active, inactive

IN: Assay result, entry COc1ccc(N)cc1 — outcome?
OUT: inactive

IN: Queued: CN(C)c1ccc(C(=O)c2ccc(N(C)C)cc2)cc1
OUT: inactive

IN: Queued: CC(C)Cc1ccc(C(C)C(=O)O)cc1 (centres undefined)
OUT: inactive

IN: Queued: Nc1ccc(Cl)c(N)c1
OUT: active
